Literature survey of Ki (system: Estrogen receptor (Homo sapiens)).
- TARGET UNDER TEST: Estrogen receptor (Homo sapiens)
- Sequence (P03372 whole entry): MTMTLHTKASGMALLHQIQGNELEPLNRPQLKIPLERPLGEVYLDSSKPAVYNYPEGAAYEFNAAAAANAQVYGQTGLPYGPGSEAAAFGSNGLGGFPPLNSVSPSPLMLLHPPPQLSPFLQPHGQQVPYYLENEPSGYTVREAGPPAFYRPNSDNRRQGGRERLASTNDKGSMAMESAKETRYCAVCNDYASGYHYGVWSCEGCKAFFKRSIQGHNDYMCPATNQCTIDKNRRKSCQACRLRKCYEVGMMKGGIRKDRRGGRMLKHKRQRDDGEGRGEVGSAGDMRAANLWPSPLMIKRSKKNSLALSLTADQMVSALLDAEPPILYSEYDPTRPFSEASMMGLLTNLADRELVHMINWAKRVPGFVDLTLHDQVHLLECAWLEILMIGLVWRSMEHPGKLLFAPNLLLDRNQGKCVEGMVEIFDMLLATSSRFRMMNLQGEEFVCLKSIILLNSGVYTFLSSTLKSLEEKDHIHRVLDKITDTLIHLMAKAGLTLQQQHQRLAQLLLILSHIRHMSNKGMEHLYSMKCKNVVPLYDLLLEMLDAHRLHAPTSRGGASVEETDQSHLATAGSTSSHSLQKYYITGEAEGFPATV
MEASUREMENT TYPE: Ki (nM)

Recorded results for 2 molecules are shown here.
CN(CCCc1ccc(F)cc1)c1nc(NCCc2ccc(O)cc2)nc(N2CCNCC2)n1 : 380
O=C(O)/C=C/c1ccc(Oc2c(-c3ccccc3)c(-c3ccccc3)nc3cc(O)ccc23)cc1 : 3160

(A) O=C(/C=C/c1ccc(C(=C2C3CC4CC(C3)CC2C4)c2ccc(O)cc2)cc1)NCCO
(B) NC(=O)c1ccc(C2=C(c3ccc(O)cc3)Cc3cc(O)ccc32)cc1
(C) COCc1cc2ccccc2c(Oc2ccc(/C=C/C(=O)O)cc2)c1-c1ccccc1
Qu. Form: Sort by [Ki] Order [ ascending ] Respond with the label ranking, as requested.
Ans. A, B, C

(1) CCCCc1cc2ccccc2c(Oc2ccc(/C=C/C(=O)O)cc2)c1-c1ccccc1
(2) Oc1ccc(C2CCc3cc(O)ccc3N2Cc2ccc(OCCN3CCCC3)cc2)cc1 (centres undefined)
Qu. Of 1 and 2 , which one carries the higher reported Ki? Response format: the label of the selected entry.
Ans. 1
(1: 977 nM, 2: 1.1 nM)

(A) CN(CCCc1ccc(Cl)cc1)c1nc(NCCc2ccc(O)cc2)nc(N2CCN(S(=O)(=O)Cc3ccccc3)CC2)n1
(B) Oc1ccc(C2=C(c3ccc(CBr)cc3)c3ccc(O)cc3C2)cc1
(C) NC(=O)/C=C/c1ccc(C(=C2C3CC4CC(C3)CC2C4)c2ccc(O)cc2)cc1
(D) O/N=C/c1ccc(-c2ccccc2)c(-c2ccccc2)c1
Qu. Parameters: sort_field (Ki), sort_dir (desc). Labels, requested order.
Ans. A, B, C, D

(A) O=C(/C=C/c1ccc(C(=C2C3CC4CC(C3)CC2C4)c2ccc(O)cc2)cc1)OCCCCO
(B) O=C(c1ccc(OCCN2CCCCC2)cc1)N1c2ccc(O)cc2CCC1c1cccc(O)c1 (centres undefined)
Qu. Compare the recorded Ki of A and B ; state which is larger. Reply with the label of the item you choose.
Ans. B

(A) NCCNC(=O)/C=C/c1ccc(C(=C2C3CC4CC(C3)CC2C4)c2ccc(O)cc2)cc1
(B) COc1ccccc1OS(=O)(=O)C1CC2OC1C(c1ccc(NC(=O)CCCCCCC(=O)O)cc1)=C2c1ccc(O)cc1 (racemic)
(C) Nc1c(/C=N/O)ccc(-c2ccccc2)c1-c1ccccc1
Qu. # sort list by recorded Ki, greatest to least Return value: ordered labels per request.
Ans. B, C, A
(B: 159 nM, C: 2.2 nM, A: 0.57 nM)

(I) CN(CCOc1ccc(Cl)cc1)c1nc(NCCc2ccc(O)cc2)nc(N2CCNCC2)n1
(II) N#C/C=C/c1ccc(C(=C2C3CC4CC(C3)CC2C4)c2ccc(O)cc2)cc1
(III) COC(=O)C(CC1(C)CC2CCC1CC2C(C)(C)CCNC(=O)CCC(C)C)C(=O)OC (centres undefined)
(IV) Nc1ccc(C2=C(c3ccc(O)cc3)Cc3cc(O)ccc32)cc1
(V) C[C@]12CC[C@@H]3c4ccc(O)cc4CC[C@H]3[C@@H]1CC[C@@]2(O)C#CCCCCC#Cc1c(-c2ccccc2)oc2ccccc2c1=O
Qu. Sort by Ki, descending. Note for the reader: the ranking is given by listing the labels in the order requested.
Ans. V, III, I, II, IV
(V: 63100 nM, III: 7100 nM, I: 1000 nM, II: 1.4 nM, IV: 0.67 nM)

(1) COC(=O)C(N)CC1(C)CC2CCC1CC2C(C)(C)CCNC(=O)CCC(C)C (centres undefined)
(2) CCc1nc2cc(O)ccc2c(Oc2ccc(/C=C/C(=O)N(C)C)cc2)c1-c1ccccc1
Qu. Field: entry with larger Ki (options 1 / 2 ). Answer = label.
Ans. 1
(1: 32000 nM, 2: 10 nM)

(P) CCNc1c(/C=N/O)ccc(-c2ccccc2)c1-c1ccccc1
(Q) C#C[C@]1(O)CC[C@H]2[C@@H]3CCC4=CC(=O)CCC4=C3[C@@H](c3ccc(N(C)C(=O)CC[C@H](NC(=O)CC[C@@H](C)[C@H]4CC[C@H]5[C@@H]6[C@H](O)C[C@@H]7C[C@H](O)CC[C@]7(C)[C@H]6C[C@H](O)[C@]45C)C(=O)O)cc3)C[C@@]21C
(R) CN(CCCc1ccc(Cl)cc1)c1nc(NCCc2ccc(O)cc2)nc(N2CCN(S(=O)(=O)/C=C/c3ccccc3)CC2)n1
(S) CN1CCN(c2nc(NCCc3ccc(O)cc3)nc(N(C)CCCc3ccc(Cl)cc3)n2)CC1
(T) Oc1ccc(C2=C(c3ccc(Cl)cc3)c3ccc(O)cc3C2)cc1
Qu. # desc sort on Ki across 5 molecules Give the labels in the order requested.
Ans. R, S, Q, T, P
(R: 1300 nM, S: 145 nM, Q: 72 nM, T: 24 nM, P: 0.47 nM)
